From: patent EP0409227A2

tested on: Hep G2 (2.2.15)-Zellen; test: DNA synthesis of Hep G2 (2.2.15) cells (acid-insoluble radioactivity after 3H-thymidine or 3H-deoxyadenosine); assay type: cell-based, menschlichen; settings: nucleoside 0,003 µM; 4 days, then 24 h label; mean ± SD of five experiments
observed property: ^3H-DNA (dpm/Kultur)
Report as a plain number; the unit dpm/Kultur is understood.

Here is how some compounds turned out for ^3H-DNA.
compound: Nc1nc(N)c2ncn([C@H]3C[C@H](F)[C@@H](CO)O3)c2n1
^3H-DNA (dpm/Kultur): 19535
//
compound: Cc1cn([C@H]2C[C@H](Cl)[C@@H](CO)O2)c(=O)nc1N
^3H-DNA (dpm/Kultur): 13450
//
compound: CCc1cn([C@H]2C[C@H](F)[C@@H](CO)O2)c(=O)nc1N
^3H-DNA (dpm/Kultur): 14020

From here, focus on the item given below.
Entry Nc1ccn([C@H]2C=C[C@@H](CO)O2)c(=O)n1 [2',3'-Didehydro-2',3'-didesoxycytidin] , tested on Hep G2 (2.2.15)-Zellen, has a reported ^3H-DNA of 17940

###

target: DNA-Polymerase-beta (Homo sapiens); construct: Die Isolierung der Enzyme und deren Aktivitätsbestimmung erfolgte entsprechend der Methode von Matthes et al; from tissue; experiment: Effect of modified nucleoside triphosphates on cellular DNA polymerase beta; format: biochemical; conditions: read-out: ID₅₀ (µM) DNA-Polymerase- beta
Examples of molecules with documented IC50 follow.
Numbers only; they are read as µM.

GET /value?item= Nc1ncnc2c1ncn2[C@H]1C=C[C@@H](COP(=O)(O)OP(=O)(O)OP(=O)(O)O)O1 [ddeATP] &field=IC50 returns 4.5

# IC50 of Nc1nc2c(ncn2[C@H]2C[C@H](F)[C@@H](COP(=O)(O)OP(=O)(O)OP(=O)(O)O)O2)c(=O)[nH]1 [FdGTP] = 1.8

molecule Cc1cn([C@H]2C=C[C@@H](COP(=O)(O)OP(=O)(O)OP(=O)(O)O)O2)c(=O)nc1N [ddeMetCTP] , IC50 observed: 10

###

System: Hep G2 (2.2.15)-Zellen
Test: DNA synthesis of Hep G2 (2.2.15) cells (acid-insoluble radioactivity after 3H-thymidine or 3H-deoxyadenosine)
Type: cell-based, menschlichen
Conditions: nucleoside 0,03 µM; 4 days, then 24 h label; mean ± SD of five experiments
Source text: Die Testung der antiviralen Wirksamkeit der Nucleoside auf zelluärer Ebene erfolgte an einer menschlichen Hepatoblastom-Zellinie, die mit dem HBV-Genom tranfiziert wurde und sowohl das Oberflächenantigen des Virus (HBsAg) als auch die HBV-DNA permanent produziert und infektiöse Viruspartikel in das Medium abgibt (Hep G2-Zellen, Klon 2.2.15, Sells et al. Proc.Natl.Acad. Sci. 84, 1005 (1987)). […]
Measured ^3H-DNA values are reported for all entries that follow.
Give your result in dpm/Kultur as a bare value.

Worked examples, 2 compounds total:
compound: Cc1cn([C@H]2C[C@H](N)[C@@H](CO)O2)c(=O)nc1N [2′,3′-Didesoxy-3′-amino-5-methylcytidin]
observed property: ^3H-DNA
reported result: 14180
//
compound: Cc1cn([C@@H]2O[C@H](CO)[C@@H](O)[C@@H]2O)c(=O)nc1N [Arabinosyl-5-methyl-cytosin, 1-β-D-Arabinofuranosyl-5-methylcytosin]
observed property: ^3H-DNA
reported result: 19075

Value of ^3H-DNA reported for the compound CCc1cn([C@H]2C[C@H](F)[C@@H](CO)O2)c(=O)nc1N [2',3'-Didesoxy-3'-fluor-5-ethylcytidin] is 14570

// field: ^3H-DNA; key: Nc1ncnc2c1ncn2[C@H]1C=C[C@@H](CO)O1 [2′,3′-Didehydro-2′,3′-didesoxyadenosin] ; value = 18975

###

Each entry below carries its reported HBsAg.
system: HBsAg-Sekretion von Hep G2 (2.2.15)-Zellen; test: Inhibition of HBsAg secretion of Hep G2 (2.2.15) cells (solid-phase radioimmunoassay of the medium); type: cell-based, HBV; conditions: nucleoside 0,003 µM; 4 days + 24 h; mean ± SD of five experiments

molecule: Nc1ncnc2c1ncn2[C@H]1C=C[C@@H](CO)O1 [2′,3′-Didehydro-2′,3′-didesoxyadenosin]
observed property: HBsAg
reported result: 16,9 ± 2,6 ng/ml

molecule: Nc1nc(N)c2ncn([C@H]3C[C@H](F)[C@@H](CO)O3)c2n1
observed property: HBsAg
reported result: 15,9 ± 2,7 ng/ml

molecule: Nc1ccn([C@H]2C=C[C@@H](CO)O2)c(=O)n1 [2',3'-Didehydro-2',3'-didesoxycytidin]
observed property: HBsAg
reported result: 18,7 ± 2,8 ng/ml

molecule: Cc1cn([C@H]2C[C@H](F)[C@@H](CO)O2)c(=O)nc1N
observed property: HBsAg
reported result: 14,3 ± 2,4 ng/ml

Value of measured HBsAg for the entry `Cc1cn([C@H]2C[C@H](N)[C@@H](CO)O2)c(=O)nc1N` : 13,9 ± 2,9 ng/ml

###

This listing pairs compounds with measured ^3H-DNA.
System: Hep G2 (2.2.15)-Zellen
Assay: DNA synthesis of Hep G2 (2.2.15) cells (acid-insoluble radioactivity after 3H-thymidine or 3H-deoxyadenosine)
Assay type: cell-based, menschlichen
Conditions: nucleoside 0,03 µM; 4 days, then 24 h label; mean ± SD of five experiments
Text: Die Testung der antiviralen Wirksamkeit der Nucleoside auf zelluärer Ebene erfolgte an einer menschlichen Hepatoblastom-Zellinie, die mit dem HBV-Genom tranfiziert wurde und sowohl das Oberflächenantigen des Virus (HBsAg) als auch die HBV-DNA permanent produziert und infektiöse Viruspartikel in das Medium abgibt (Hep G2-Zellen, Klon 2.2.15, Sells et al. Proc.Natl.Acad. Sci. 84, 1005 (1987)). […]
A complete answer gives the number followed by the unit.

Some compounds with recorded ^3H-DNA:
compound: Nc1nc(N)c2ncn([C@H]3C[C@H](F)[C@@H](CO)O3)c2n1
reported result: 17265 ± 1895 dpm/Kultur
--
compound: Cc1cn([C@H]2C[C@H](Cl)[C@@H](CO)O2)c(=O)nc1N
reported result: 14370 ± 1620 dpm/Kultur
--
compound: Nc1ccn([C@H]2C=C[C@@H](CO)O2)c(=O)n1 [2',3'-Didehydro-2',3'-didesoxycytidin]
reported result: 15685 ± 1740 dpm/Kultur

Turning now to a further compound:
The recorded ^3H-DNA for `Cc1cn([C@H]2C[C@H](F)[C@@H](CO)O2)c(=O)nc1N` is 15580 ± 1910 dpm/Kultur

###

biological target: DNA-Polymerase-beta (Homo sapiens, UniProt P06746); construct: Die Isolierung der Enzyme und deren Aktivitätsbestimmung erfolgte entsprechend der Methode von Matthes et al; from tissue; assay: Effect of modified nucleoside triphosphates on cellular DNA polymerase beta; format: biochemical; details: read-out: ID₅₀ (µM) DNA-Polymerase- beta
Entries annotated with measured IC50
Just the number in µM, nothing appended.

compound: Nc1nc2c(ncn2[C@H]2C=C[C@@H](COP(=O)(O)OP(=O)(O)OP(=O)(O)O)O2)c(=O)[nH]1 [ddeGTP]
unit of measure: µM
IC50: 5

compound: CCc1cn([C@H]2C[C@H](F)[C@@H](COP(=O)(O)OP(=O)(O)OP(=O)(O)O)O2)c(=O)nc1N [FEtdCTP]
unit of measure: µM
IC50: 3

compound: Cc1cn([C@H]2C[C@H](Cl)[C@@H](COP(=O)(O)OP(=O)(O)OP(=O)(O)O)O2)c(=O)nc1N [ClMetdCTP]
unit of measure: µM
IC50: 100

Query compound follows.
The observed IC50 for Nc1ccn([C@H]2C=C[C@@H](COP(=O)(O)OP(=O)(O)OP(=O)(O)O)O2)c(=O)n1 [ddeCTP] when tested with DNA-Polymerase-beta (Homo sapiens, UniProt P06746) stands at 6
